Target: Fuc(a1-3)[Gal(b1-4)]GlcNAc(b1-3)GalNAc
Assay: glycan array binding signal (z-score within array); higher = stronger binding
Settings: glycan notation: IUPAC condensed, linker removed
Many of the other results were omitted from the sample, so the strongest signals are more common in it than they were.
measured-attribute: glycan array binding signal (z-score)
Answer field: number only, no words.

Reference set (3 entries):
binder	measured-attribute	experimental-value
LlpA (Burkholderia cenocepacia) (protein) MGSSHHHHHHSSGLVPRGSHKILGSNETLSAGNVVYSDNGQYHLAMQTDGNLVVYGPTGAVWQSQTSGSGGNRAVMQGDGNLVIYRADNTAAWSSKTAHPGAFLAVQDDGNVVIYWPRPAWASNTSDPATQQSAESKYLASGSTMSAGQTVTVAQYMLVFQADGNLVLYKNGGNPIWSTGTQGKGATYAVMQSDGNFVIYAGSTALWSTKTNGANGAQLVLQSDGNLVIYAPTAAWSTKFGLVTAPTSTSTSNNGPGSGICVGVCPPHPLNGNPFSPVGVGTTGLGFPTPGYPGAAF	glycan array binding signal (z-score)	0.159
RS2L (Ralstonia solanacearum), B5RXL5_RALSO (protein) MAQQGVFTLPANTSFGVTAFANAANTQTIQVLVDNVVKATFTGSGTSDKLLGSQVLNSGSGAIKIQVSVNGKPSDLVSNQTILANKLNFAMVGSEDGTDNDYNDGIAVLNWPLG	glycan array binding signal (z-score)	-0.24
AFL5 (Aspergillus fumigatus), Q4WB00 (protein) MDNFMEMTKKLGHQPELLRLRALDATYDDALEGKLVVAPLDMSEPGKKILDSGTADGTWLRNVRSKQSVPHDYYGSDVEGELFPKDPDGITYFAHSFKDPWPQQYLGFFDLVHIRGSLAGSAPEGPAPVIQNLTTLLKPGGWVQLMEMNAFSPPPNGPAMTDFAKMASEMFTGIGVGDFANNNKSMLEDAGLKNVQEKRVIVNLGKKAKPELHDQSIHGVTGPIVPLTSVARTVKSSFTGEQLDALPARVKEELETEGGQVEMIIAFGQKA	glycan array binding signal (z-score)	-0.016

For the next question, use this binder.
Prompt: Given HBHA-Rv (Mycobacterium tuberculosum), P0A5P6 (protein) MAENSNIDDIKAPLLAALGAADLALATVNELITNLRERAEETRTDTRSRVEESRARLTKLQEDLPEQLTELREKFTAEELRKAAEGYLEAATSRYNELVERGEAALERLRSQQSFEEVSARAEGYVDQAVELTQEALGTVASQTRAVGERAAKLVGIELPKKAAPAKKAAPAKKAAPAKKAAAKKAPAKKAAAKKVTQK , respond with its glycan array binding signal (z-score).
Response: -0.275
